Subject of test: SHP2-C SH2
Test name: SH2 binding enrichment of the phosphorylated peptide, bacterial display (enrichment ratio); higher = better substrate or ligand; peptides without Tyr show the background;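 also: peptide library displayed on the E. coli surface as eCPX fusions, selected cells deep-sequenced, score is each peptide's frequency after selection divided by its frequency in the input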

| Residues | SH2 binding enrichment |
| --- | --- |
| GKTFTYRSVFF [ZNF80_Y200] | 0.965 |
| PADCRYYTFPQ [GAMT_Y222_A224T] | 1.36 |
| GLAKEYIDPET [CSNK1G2_Y195] | 0.967 |
| LTNDRYLATLT [IL6ST_Y396] | 0.722 |
| DSDTDYGSGFP [RNASEH2A_Y206_L202S_YF] | 0.697 |
| MKGEYYRYLAE [YWHAG_Y131_D129E] | 1.12 |
| ASLEAYCKHKY [RXRA_Y403] | 0.733 |
| DRLASYQDKVR [KRT12_Y139_L140Q] | 0.685 |
| TLNHQYDFTFH [CSNK1A1_Y292_D297H_YF] | 0.717 |
| SVMAEYGLFAA [VSX2_Y219_G223A_YF] | 0.627 |
| LLTALYFISWG [KCNH2_Y780_R784W] | 0.891 |
| SRGRQYQELPR [KCNH2_Y1009] | 0.565 |
| WNDLDYMDSRR [GAA_Y407] | 0.622 |
| FGLDHYQCDCT [PTGS1_Y54_R53H] | 1.59 |
